Hello, the source for this data is patent US20230365711A1, in case you need it.

Listed next: entries and their corresponding kon.
Molecular target: T1, huNABA-avi-his (hybrid protein N-A1-B3-A2: N and A1 domains of human BGP, B3 domain of human CEA, A2 domain … (human, biotinylated at the avi tag (in vivo, co-transfected biotin ligase)))
T1 construct: also called NABA-avi-his reagent; biotinylated NABA
T1 chain: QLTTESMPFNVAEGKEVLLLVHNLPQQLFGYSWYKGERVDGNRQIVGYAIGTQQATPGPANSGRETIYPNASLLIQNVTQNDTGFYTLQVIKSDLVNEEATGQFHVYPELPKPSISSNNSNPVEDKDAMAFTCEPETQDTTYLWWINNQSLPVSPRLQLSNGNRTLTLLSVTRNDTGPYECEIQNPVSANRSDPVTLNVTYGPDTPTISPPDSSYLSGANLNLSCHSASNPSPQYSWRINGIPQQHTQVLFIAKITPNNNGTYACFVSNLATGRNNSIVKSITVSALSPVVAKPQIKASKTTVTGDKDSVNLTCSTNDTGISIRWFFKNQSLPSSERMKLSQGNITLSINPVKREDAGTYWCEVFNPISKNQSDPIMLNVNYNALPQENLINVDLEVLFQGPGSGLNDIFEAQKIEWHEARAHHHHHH
Assay: Biacore, Fab on immobilized NABA-avi-his; column Monovalent Affinity
Numbers only here, please. The scale is M⁻¹ s⁻¹.

- PR1A3 (Fab, V domains shown, also called PR1A3 wt/wt; pMS22) VH: QVQLVQSGSELKKPGASVKVSCKASGYTFTEFGMNWVRQAPGQGLEWMGWINTKTGEATYVEEFKGRFVFSLDTSVSTAYLQISSLKAEDTAVYYCARWDFYDYVEAMDYWGQGTTVTVSS VL: DIQMTQSPSSLSASVGDRVTITCKASQNVGTNVAWYQQKPGKAPKLLIYSASYRYSGVPSRFSGSGSGTDFTLTISSLQPEDFATYYCHQYYTYPLFTFGQGTKLEIK: 6740

Note to self: kon recorded for anti-CEA Fab with affinity matured heavy chain CH7A H4E9 and unmatured light chain CL1A (Fab, V domains shown, Fab format, bacterially expressed; also called CH7A H4E9 + CL1A) VH: QVQLVQSGSELKKPGASVKVSCKASGYTFTEFGMNWVRQAPGQGLEWMGWINTKTGEATYIEEFKGRFVFSLDTSVSTAYLQISSLKAEDTAVYYCARWDFYDYVEAMDYWGQGTTVTVSS VL: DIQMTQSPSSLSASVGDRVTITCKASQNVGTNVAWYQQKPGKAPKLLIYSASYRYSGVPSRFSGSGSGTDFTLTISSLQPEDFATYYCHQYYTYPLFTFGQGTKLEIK was 5220

Note to self: kon recorded for anti-CEA Fab with unmatured heavy chain CH7A and affinity matured light chain CL1A pAC18 (Fab, V domains shown, Fab format, bacterially expressed; also called CH7A + CL1A pAC18) VH: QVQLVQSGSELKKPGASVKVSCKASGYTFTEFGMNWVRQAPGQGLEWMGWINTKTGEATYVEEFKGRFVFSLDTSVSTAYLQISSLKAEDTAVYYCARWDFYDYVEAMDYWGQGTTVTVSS VL: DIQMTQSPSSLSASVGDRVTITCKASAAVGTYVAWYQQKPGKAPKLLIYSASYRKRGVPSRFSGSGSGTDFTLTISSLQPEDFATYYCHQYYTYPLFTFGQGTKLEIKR was 95700

Note to self: kon recorded for H3 Full (5) 8 (Fab, V domains shown) VH: QVQLVQSGSELKKPGASVKVSCKASGYTFTEFGMNWVRQAPGQGLEWMGWINTKTGEATYVEEFKGRFVFSLDTSVSTAYLQISSLKAEDTAVYYCARWDFFEYFKTMDYWGQGTTVTVSS VL: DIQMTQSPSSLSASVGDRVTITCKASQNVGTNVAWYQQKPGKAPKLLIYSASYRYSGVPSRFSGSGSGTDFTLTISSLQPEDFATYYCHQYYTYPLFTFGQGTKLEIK was 27300

Note to self: kon recorded for 1C8 x 2F1 (Fab, V domains shown, also called 1C8 x 2F1 hc/lc, monovalent; copies: 1 + 1) VH: QVQLVQSGSELKKPGASVKVSCKASGYTFTEFGMNWVRQAPGQGLEWMGWINTKTGEATYVEEFKGRFVFSLDTSVSTAYLQISSLKAEDTAVYYCARWDFYHYVEAMDYWGQGTTVTVSS VL: DIQMTQSPSSLSASVGDRVTITCKASAAVGTYVAWYQQKPGKAPKLLIYSASYRKRGVPSRFSGSGSGTDFTLTISSLQPEDFATYYCHQYYTYPLFTFGQGTKLEIK was 68100
